# Tested on: pool of the S. pombe heterozygous deletion strain
# Format: cell-based, Schizosaccharomyces pombe
# Condition Notes: each drug at its Dose(M) of Table 2; 25° C.
Starred links: 1 amine or outer side, 2 acyl side, 3 side chain; linkers in the order of their positions; H or OH if unused. Positions of bridges follow the written chain, without caps; N, C: chain ends. Non-standard residues stand in square brackets, D forms with d. Residues, ends and D or L forms follow the SMILES beside them. Chains are numbered I, II in the order given. Actinocin(9to1) = Cc1c2oc3c(C)ccc(C(=O)[*:1])c3nc-2c(C(=O)[*:2])c(N)c1=O; NMeV = CN[C@H](C(=O)O)C(C)C; Sar = CNCC(=O)O
Measured Endpoint: PF2DT: PFDT of the sample obtained from 20 generation subculture
The answer should be a number; do not append a unit.

Field: example entries. Status: answers known.
Molecule | Test Value
C[C@H]1CCC/C=C/[C@@H]2C[C@H](O)C[C@H]2[C@H](O)/C=C/C(=O)O1 | 0.986
Cc1c2oc3c(C)ccc(C(=O)N[C@@H]4C(=O)N[C@H](C(C)C)C(=O)N5CCC[C@H]5C(=O)N(C)CC(=O)N(C)[C@@H](C(C)C)C(=O)O[C@@H]4C)c3nc-2c(C(=O)N[C@@H]2C(=O)N[C@H](C(C)C)C(=O)N3CCC[C@H]3C(=O)N(C)CC(=O)N(C)[C@@H](C(C)C)C(=O)O[C@@H]2C)c(N)c1=O [Actinomycin D] (I: T[dV]P[Sar][NMeV] / II: T[dV]P[Sar][NMeV]; ester I:1-I:C, II:1-II:C; linker I:N-II:N via Actinocin(9to1)) | 0.709
CO[C@@]12[C@H](COC(N)=O)C3=C(C(=O)C(C)=C(N)C3=O)N1C[C@@H]1N[C@@H]12 | 0.756

Ask | Requested field: PF2DT: PFDT of the sample obtained from 20 generation subculture. Item: COc1ccc([C@@H]2Sc3ccccc3N(CCN(C)C)C(=O)[C@@H]2OC(C)=O)cc1.Cl [Dilitiazem hydrochloride]
Reply | 0.890

Ask | Same lookup for C=C1[C@@H](C)[C@H]2[C@H](Cc3ccccc3)NC(=O)[C@]23OC(=O)/C=C/[C@H](O)CCC[C@@H](C)C/C=C/[C@H]3[C@@H]1O , please.
Reply | 0.785

Ask | Same lookup for Cn1c(=O)c2[nH]cnc2n(C)c1=O [Theophylline anhydrous] , please.
Reply | 0.924
